List of HDAC Inhibition 10 μM values.
system: HDAC activity (Mouse Liver Extract); assay: Histone Deacetylase (HDAC) Inhibition Assay using Boc-Lys (Ac)-AMC Substrate; format: biochemical; details: inhibitor at 10 μM; mouse liver enzyme; in % (unit assumed)

>  <compound>
O=C(CCCCCNC(=O)/C(=C\c1ccccc1[N+](=O)[O-])c1ccc(Cl)cc1)NO [Example 30]

>  <HDAC Inhibition 10 μM>
84.69

$$$$
>  <compound>
CSc1ccc(/C=C(\C(=O)NCCCCCC(=O)Nc2nccs2)c2ccc(F)cc2)cc1 [Example 20]

>  <HDAC Inhibition 10 μM>
5.57

$$$$
>  <compound>
COc1cc(/C=C(\C(=O)NCCCCCC(=O)Nc2ccccc2O)c2ccc(O)cc2)cc(OC)c1OC [Example 6]

>  <HDAC Inhibition 10 μM>
36.1

$$$$
>  <compound>
O=C(CCCCCNC(=O)/C(=C\c1ccc(C(F)(F)F)cc1)c1ccc(F)cc1)NO [Example 47]

>  <HDAC Inhibition 10 μM>
87.19

$$$$
>  <compound>
CSc1ccc(/C=C(\C(=O)NCCCCCC(=O)Nc2nc3cc(C)ccc3s2)c2ccc(F)cc2)cc1 [Example 19]

>  <HDAC Inhibition 10 μM>
10.2

$$$$
>  <compound>
O=C(CCCCCNC(=O)/C(=C\c1ccc(F)cc1Cl)c1ccccc1)NO [Example 31]

>  <HDAC Inhibition 10 μM>
91.49

$$$$
>  <compound>
COc1cc(/C=C(\C(=O)NCCCCCC(=O)Nc2ccccc2O)c2ccc(F)cc2)cc(OC)c1 [Example 2]

>  <HDAC Inhibition 10 μM>
10.46

$$$$
>  <compound>
O=C(CCCCCNC(=O)/C(=C\c1ccncc1)c1ccc(F)cc1)Nc1ccc(O)cc1[N+](=O)[O-] [Example 15]

>  <HDAC Inhibition 10 μM>
4

$$$$

These entries and their values trace back to patent US8263044B2.
